Tested on: UACC-257
Measurement notes: NCI tumour cell line growth inhibition, 48 h
The source made the active and inactive calls. Cut-off read from the data, not from the text of the source: active = GI50 up to about 1.1 µM and inactive = higher.
Measured quantity: GI50

> print(dat)
                                   compound  observed.measurement
1  CC(=O)OC1CN2CCC1CC2 (centres undefined) [ACECLIDINE]   > 100 µM (inactive)
2  CC1SCCc2nc3ccccc3n21 (centres undefined)   > 100 µM (inactive)
3  CN(C(=O)c1ccc(OCCCC(=O)O)c(Cl)c1Cl)C1CCCC1   > 100 µM (inactive)
4  Cn1c(=O)c2c(nc3n2CCC(=O)N3CCCCl)n(C)c1=O   > 100 µM (inactive)

Sure, the documented GI50 for CC1C[C@]2(C[C@@H](C)C(=O)O2)OC2CC3(C)C4CCC5C(C)(C)OC(=O)CC[C@@]56C[C@@]46CC[C@]3(C)C12 (some centres undefined) is > 100 µM (inactive)

Sure, the documented GI50 for O=c1oc2ccccc2c(Nc2ccc3c(c2)S(=O)(=O)c2ccccc2O3)c1[N+](=O)[O-] is 19.5 µM (inactive)

Sure, the documented GI50 for CCC1(COC(NC(=O)c2ccccc2)(C(F)(F)F)C(F)(F)F)COC1 is > 100 µM (inactive)

Sure, the documented GI50 for COc1ccc([C@@]23Oc4cc(OC)cc(OC)c4[C@]2(O)[C@H](O)[C@H](C(=O)N(C)C)[C@H]3c2ccccc2)cc1 [ROCAGLAMIDE] is 0.0184 µM (active)

Sure, the documented GI50 for COC(=O)C1=C(C)NC2(O)C=CC(=O)C3C(=O)N(c4ccccc4)C(=O)C132 (centres undefined) is 90.8 µM (inactive)

----------
System: HOP-92
Measurement notes: NCI tumour cell line growth inhibition, 48 h
Activity calls are given as the source filed them. Cut-off read from the data, not from the text of the source: active = GI50 up to about 1.1 µM and inactive = higher.
Use one of these outcomes when replying: active, inactive

> print(dat)
                                   molecule  classification
1  CC(=O)Oc1cc2c(=O)oc3c(OC(C)=O)c(OC(C)=O)c(OC(C)=O)c4c(=O)oc(c1OC(C)=O)c2c34        inactive
2  C[C@@H](c1ccccc1)N(CC#N)C1CCC[C@H]1O (some centres not stated)        inactive
3  O=C(c1cc(=O)c2ccc(O)cc2o1)c1ccc(Cl)cc1Cl        inactive
4  O=C1C=CC(O)C2C1CC13SSC4(CC5C(=O)C=CC(O)C5N4C1=O)C(=O)N23 (configuration not stated)          active

Could you kindly confirm the outcome this assay logged for NCCCN(CCCN)CCc1cn(C(=O)c2ccccc2)cn1 ?
inactive

Could you kindly confirm the outcome this assay logged for C1CSCCSS[C@@H]2CCCCC2SC1 (some centres not stated) ?
inactive

Could you kindly confirm the outcome this assay logged for Cc1noc2cccc(O)c12 ?
inactive

Could you kindly confirm the outcome this assay logged for CCOc1cc(NC(C)=O)ccc1C(=O)NN1C(=O)C(Cl)C1c1ccco1 (configuration not stated) ?
inactive

Could you kindly confirm the outcome this assay logged for COc1ccc(OC)c(NC(=O)C(=O)Nn2c(S)nc3ccccc3c2=O)c1 ?
inactive

Could you kindly confirm the outcome this assay logged for CCO/C=C1\N=C(C(Cl)c2ccccc2)OC1=O (configuration not stated) ?
inactive

Could you kindly confirm the outcome this assay logged for C[C@]12CC/C(=N\OC(=O)Nc3ccccc3)C=C1CC[C@@H]1C2CC[C@@]2(C)C1CC[C@@H]2OC(=O)Nc1ccccc1 (some centres not stated) ?
inactive

Could you kindly confirm the outcome this assay logged for Cc1cccc(C[C@@]2(SCc3ccccc3)C(C)(C)[C@@H]3CC[C@@]2(C)C3)n1 ?
inactive

Could you kindly confirm the outcome this assay logged for CN(C)CCCSc1nc2ccccc2[nH]1 ?
inactive

Could you kindly confirm the outcome this assay logged for Cc1cc(O)c(O)c(Oc2cc(C)cc(O)c2O)c1 ?
inactive

Could you kindly confirm the outcome this assay logged for O=C(Nc1nncs1)NS(=O)(=O)n1c(=S)sc2ccccc21 ?
inactive

Could you kindly confirm the outcome this assay logged for O=C(CC1(O)C(=O)Nc2ccccc21)c1ccccc1O (configuration not stated) ?
inactive

Could you kindly confirm the outcome this assay logged for COc1cc2c(cc1OC)-c1c(cnn1C1OC(COC(C)=O)C(OC(C)=O)C(OC(C)=O)C1OC(C)=O)CC2 (configuration not stated) ?
inactive
